Recorded values, source the supplement of paper PMC11451515.

tested on: P12-Ichikawa; experiment: cell viability relative to DMSO control; higher = less cytotoxic; settings: RPMI 5 mM glucose + 10% dialyzed FBS; 48 h; 0.19 µM
measurement label: cell viability

smiles repr | measurement label | result
CNC(=O)c1cc(COc2nnc(Nc3ccc(Cl)cc3)c3ccoc23)ccn1 | cell viability | 115%
C[C@]12CCC(=O)C(O)=C1CC[C@@H]1[C@@H]2CC[C@]2(C)C(=O)CC[C@@H]12 | cell viability | 115%
O=C1CCc2cc(OCCCCc3nnnn3C3CCCCC3)ccc2N1 | cell viability | 91.8%
CN(C)c1ccccc1CN1CCCN(Cc2ccccc2N(C)C)C1c1ccncc1 | cell viability | 91.7%
NC(=O)c1c(OCc2c(F)cc(Br)cc2F)nsc1NC(=O)NCCCCN1CCCC1 | cell viability | 111%
CN(C)Cc1cccc(N/C(=C2\C(=O)Nc3cc(C(=O)N(C)C)ccc32)c2ccccc2)c1 | cell viability | 111%
